Biological target: hTRPM8 (Homo sapiens, UniProt Q7Z2W7)
Sequence (Q7Z2W7 whole entry): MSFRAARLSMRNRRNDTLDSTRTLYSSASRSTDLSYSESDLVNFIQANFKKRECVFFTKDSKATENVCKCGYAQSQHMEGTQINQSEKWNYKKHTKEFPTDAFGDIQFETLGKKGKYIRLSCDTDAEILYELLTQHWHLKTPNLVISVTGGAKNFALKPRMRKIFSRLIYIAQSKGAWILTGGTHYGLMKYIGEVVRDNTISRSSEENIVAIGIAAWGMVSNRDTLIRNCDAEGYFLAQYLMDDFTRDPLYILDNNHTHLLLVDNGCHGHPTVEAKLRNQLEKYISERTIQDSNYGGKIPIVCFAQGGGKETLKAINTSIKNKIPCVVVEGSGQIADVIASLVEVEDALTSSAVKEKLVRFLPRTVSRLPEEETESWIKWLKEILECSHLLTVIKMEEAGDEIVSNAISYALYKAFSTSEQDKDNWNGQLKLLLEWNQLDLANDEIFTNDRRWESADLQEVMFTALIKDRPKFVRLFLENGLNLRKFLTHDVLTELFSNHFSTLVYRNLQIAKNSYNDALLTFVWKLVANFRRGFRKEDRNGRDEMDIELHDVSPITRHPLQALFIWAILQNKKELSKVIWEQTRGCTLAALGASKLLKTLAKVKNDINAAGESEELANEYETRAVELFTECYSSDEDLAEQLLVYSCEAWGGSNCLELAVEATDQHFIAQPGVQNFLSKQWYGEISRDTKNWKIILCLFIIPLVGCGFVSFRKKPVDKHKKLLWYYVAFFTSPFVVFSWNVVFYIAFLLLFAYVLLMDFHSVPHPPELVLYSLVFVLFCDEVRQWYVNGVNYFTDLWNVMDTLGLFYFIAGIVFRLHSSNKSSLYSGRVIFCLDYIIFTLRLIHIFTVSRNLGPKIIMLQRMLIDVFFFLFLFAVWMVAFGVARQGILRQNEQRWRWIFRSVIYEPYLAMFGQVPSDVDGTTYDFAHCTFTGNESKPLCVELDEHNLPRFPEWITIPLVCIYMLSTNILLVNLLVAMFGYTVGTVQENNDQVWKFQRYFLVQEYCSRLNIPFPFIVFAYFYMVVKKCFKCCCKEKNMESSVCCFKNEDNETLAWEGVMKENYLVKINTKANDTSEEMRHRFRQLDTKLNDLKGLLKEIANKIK
Assay: Assay on TRPM8 modulators: calcium imaging (Fluo-4, Flexstation) in HEK293 cell line stably expressing hTRPM8
Conditions: TRPM8 agonist activity, calcium influx, HEK293 stably expressing hTRPM8, sigmoidal dose-response fit
Counter-ions that a name gives are not always drawn.
measurement-name: EC50

In [3]: df
Out[3]:
                                   molecule  measurement_name            result
0  Cc1cc(C)c(OCCN2CCN(C)CC2)c(Cc2cccc(Br)c2)c1              EC50  1000 to 35000 nM
1  CC1=C(OCCN2CCN(C)CC2)/C(=C/c2ccccc2)CC(C)C1 (centres unmarked)              EC50  1000 to 35000 nM
2  Cc1ccc(OCCN2CCN(C)CC2)c(Cc2cccs2)c1 [compound 105, hydrochloride]              EC50    300 to 1000 nM
3  Cc1cc(C)c(OCCN2CCOCC2)c(Cc2cc(F)c(F)cc2F)c1              EC50  1000 to 35000 nM
4   Cc1ccc(Oc2ccccc2C#N)c(CCCN2CCN(C)CC2)c1              EC50  1000 to 35000 nM

---

Target: hTRPM8 (Homo sapiens, UniProt Q7Z2W7)
Test: Assay on TRPM8 modulators: calcium imaging (Fluo-4, Flexstation) in HEK293 cell line stably expressing hTRPM8
Conditions: TRPM8 agonist activity, calcium influx, HEK293 stably expressing hTRPM8, sigmoidal dose-response fit
pEC50: −log10 of the molar value. Where a name gives a salt, the structure may show the parent alone.
In this section we review reported pEC50 values for a set of molecules.
measurement-name: pEC50

>>> print(df.to_string())
                                   molecule  measurement_name        result
0  Cc1ccc(OC(=O)CN2CCN(C)CC2)c(Cc2ccccc2)c1             pEC50  4.46 to 6.00
1     Cc1cc(C)c(OCCN2CCOCC2)c(Cc2ccccc2N)c1             pEC50  4.46 to 6.00
2  Cc1ccc(OCCN2CCN(C)CC2)c(/C=C2\CCCCC2=O)c1             pEC50  6.00 to 6.52
3  CCOC(=O)c1ccc(Cc2cc(C)cc(C)c2OCCN2CCN(C)CC2)cc1 [compound 164, dihydrochloride]             pEC50  4.46 to 6.00
4   Cc1cc(C)c(CCCN2CCOCC2)c(Oc2ccccc2C#N)c1             pEC50        > 7.30
5  Cc1cc(C)c(OCCN2CCOCC2)c(Cc2cc(F)cc(F)c2)c1             pEC50  6.00 to 6.52

---

Biological target: hTRPM8 (Homo sapiens, UniProt Q7Z2W7)
Assay: Assay on TRPM8 modulators: calcium imaging (Fluo-4, Flexstation) in HEK293 cell line stably expressing hTRPM8
Details: TRPM8 agonist activity, calcium influx, HEK293 stably expressing hTRPM8, sigmoidal dose-response fit
Where a name gives a salt, the structure may show the parent alone.
measurement-name: EC50

>>> df
                                   compound            result
0  Cc1ccc(OCCN2CCOCC2)c(CC2CCCCC2=O)c1 (stereo not shown)  1000 to 35000 nM
1  Cc1cc(C)c(OCC(C)N2CCOCC2)c(Cc2ccccc2C#N)c1 (stereo not shown)      50 to 300 nM
2        Cc1cccc(Cc2ccccc2)c1OCCN1CCN(C)CC1  1000 to 35000 nM
3  CCc1ccc(OCCN2CCN(C)CC2)c(Cc2ccccc2)c1 [compound 74, hydrochloride]    300 to 1000 nM
4  CN1CCN(CCOc2ccccc2Cc2ccccc2)CC1 [compound 93, hydrochloride]  1000 to 35000 nM
5   Cc1ccc(/C=C/CN2CCN(C)CC2)c(Cc2ccccc2)c1  1000 to 35000 nM
6         Cc1ccc(OCCN2CCNCC2)c(Cc2ccccc2)c1  1000 to 35000 nM
7        Cc1cccc(OCCN2CCN(C)CC2)c1Cc1ccccc1  1000 to 35000 nM
8  Cc1ccc(OCCN2CCN(C)CC2)c(C(=O)c2ccccc2)c1  1000 to 35000 nM
9  Cc1ccc(CC(=O)CN2CCN(C)CC2)c(Cc2ccccc2)c1  1000 to 35000 nM

---

Biological target: hTRPM8 (Homo sapiens)
Experiment: Assay on TRPM8 modulators: calcium imaging (Fluo-4, Flexstation) in HEK293 cell line stably expressing hTRPM8
Details: TRPM8 agonist activity, calcium influx, HEK293 stably expressing hTRPM8, sigmoidal dose-response fit
pEC50: −log10 of the molar value. Counter-ions that a name gives are not always drawn.
In this section we review reported pEC50 values for a set of compounds.
measurement-name: pEC50

>>> print(df.to_string())
                                   compound  measurement_name        result
0      Cc1ccc(NCCN2CCN(C)CC2)c(Cc2ccccc2)c1             pEC50  4.46 to 6.00
1     Cc1cccc(Cc2cc(C)ccc2OCCN2CCN(C)CC2)c1             pEC50  4.46 to 6.00
2  Cc1ccc(O)c(Cc2cc(C)ccc2OCCN2CCN(C)CC2)c1             pEC50  4.46 to 6.00
3  CN1CCN(CCOc2ccc(Cl)cc2Cc2ccccc2)CC1 [compound 73, hydrochloride]             pEC50  6.00 to 6.52
4       COc1cccc(OCCN2CCN(C)CC2)c1Cc1ccccc1             pEC50  4.46 to 6.00
5  Cc1cc(C)c(OCC(C)N2CCOCC2)c(Cc2c(F)cccc2F)c1 (stereo not shown)             pEC50  6.52 to 7.30
6         Cc1ccc(OCCN2CCN(C)CC2)c(CC(C)C)c1             pEC50  4.46 to 6.00

---

Target: hTRPM8 (Homo sapiens)
Experiment: Assay on TRPM8 modulators: calcium imaging (Fluo-4, Flexstation) in HEK293 cell line stably expressing hTRPM8
Settings: TRPM8 agonist activity, calcium influx, HEK293 stably expressing hTRPM8, sigmoidal dose-response fit
pEC50: −log10 of the molar value.
In this section we review reported pEC50 values for a set of compounds.
measurement-name: pEC50

In [3]: df
Out[3]:
                                   compound      target_under_test  measurement_name        result
0  Cc1cc(C)c(OCCN2CCOCC2)cc1Cc1c(F)c(F)c(F)c(F)c1F  hTRPM8 (Homo sapiens)             pEC50  4.46 to 6.00
1  Cc1cc(C)c(OCCN2CCOCC2)c(Cc2c(Br)cccc2C#N)c1  hTRPM8 (Homo sapiens)             pEC50  6.00 to 6.52
2  Cc1cc(C)c(OC(C)CO)c(Cc2ccccc2C#N)c1 (stereo not drawn)  hTRPM8 (Homo sapiens)             pEC50  6.00 to 6.52
3     Cc1ccc(OCCN2CCC(CO)CC2)c(Cc2ccccc2)c1  hTRPM8 (Homo sapiens)             pEC50  4.46 to 6.00
4   Cc1cc(C)c(OCCC2CCOCC2)c(Cc2ccccc2C#N)c1  hTRPM8 (Homo sapiens)             pEC50  6.52 to 7.30
5      CCc1cc(C)cc(Cc2ccccc2F)c1OCCN1CCOCC1  hTRPM8 (Homo sapiens)             pEC50  6.52 to 7.30

---

Biological target: hTRPM8 (Homo sapiens, UniProt Q7Z2W7)
Experiment: Assay on TRPM8 modulators: calcium imaging (Fluo-4, Flexstation) in HEK293 cell line stably expressing hTRPM8
Conditions: TRPM8 agonist activity, calcium influx, HEK293 stably expressing hTRPM8, sigmoidal dose-response fit
Description: A HEK293 cell line stably expressing hTRPM8 was generated according to Klein et al., (Chem. Senses 36: 649-658, 2011) and receptor activation was monitored by calcium imaging in a Flexstation. […] On day 2, agonists were evaluated via calcium imaging using Fluo-4. […] The cells were then washed five times with 100 μL assay buffer and then calcium influx to serial dilutions of inventive compounds were measured in a Flexstation 3 (Molecular Devices). […]
Structures can show the parent of a compound that is named as a salt.
In this section we review reported EC50 values for a set of compounds.
measurement-name: EC50

>>> df
                                    compound                      target_under_test  measurement_name            result
 0       Cc1ccc(OCCN2CCN(C)CC2)c(Cc2ccco2)c1  hTRPM8 (Homo sapiens, UniProt Q7Z2W7)              EC50  1000 to 35000 nM
 1  Cc1ccc(OCCN2CCN(C)CC2)c(Cc2ccc(Cl)cc2)c1 [compound 60, hydrochloride]  hTRPM8 (Homo sapiens, UniProt Q7Z2W7)              EC50  1000 to 35000 nM
 2  CC(C)c1ccc(OCCN2CCN(C)CC2)c(Cc2ccccc2)c1  hTRPM8 (Homo sapiens, UniProt Q7Z2W7)              EC50  1000 to 35000 nM
 3  Cc1cc(C)c(OC(C)CN2CCN(C)CC2)c(Cc2ccccc2C#N)c1 (stereo not shown) [compound 116, hydrochloride]  hTRPM8 (Homo sapiens, UniProt Q7Z2W7)              EC50      50 to 300 nM
 4  Cc1cc(C)c(N(C)CCN2CCOCC2)c(Cc2ccccc2C#N)c1  hTRPM8 (Homo sapiens, UniProt Q7Z2W7)              EC50           < 50 nM
 5     Cc1cc(C)c(CCCN2CCOCC2)c(Oc2ccccc2F)c1  hTRPM8 (Homo sapiens, UniProt Q7Z2W7)              EC50           < 50 nM
 6   Cc1ccc(OCCC2CCN(C)CC2)c(Cc2ccccc2C#N)c1  hTRPM8 (Homo sapiens, UniProt Q7Z2W7)              EC50  1000 to 35000 nM
 7    Cc1cc(C)c(OCCN2CCOCC2)c(Cc2ccccc2Cl)c1  hTRPM8 (Homo sapiens, UniProt Q7Z2W7)              EC50      50 to 300 nM
 8  CCN1CCN(CCOc2ccc(C)cc2Cc2ccccc2)CC1 [compound 76, hydrochloride]  hTRPM8 (Homo sapiens, UniProt Q7Z2W7)              EC50  1000 to 35000 nM
 9  Cc1cc(C)c(OCCN2CCOCC2)c(Cc2cc(F)ccc2F)c1  hTRPM8 (Homo sapiens, UniProt Q7Z2W7)              EC50      50 to 300 nM
10  Cc1ccc(OCCN2CC(C)N(C)C(C)C2)c(Cc2ccccc2)c1 (stereo not shown)  hTRPM8 (Homo sapiens, UniProt Q7Z2W7)              EC50    300 to 1000 nM
11  Cc1ccc(N(C)CCN2CCOCC2)c(Cc2c(F)cccc2F)c1  hTRPM8 (Homo sapiens, UniProt Q7Z2W7)              EC50           < 50 nM
12  Cc1cc(C)c(OCCN2CCN(C)CC2)c(Cc2ccccc2F)c1  hTRPM8 (Homo sapiens, UniProt Q7Z2W7)              EC50      50 to 300 nM
